- Tested on: NCI-H226 lung
- ASSAY_INFO: NCI tumour cell line growth inhibition, 48 h
MEASUREMENT_KIND: GI50

Guide cases for GI50, answers given:
COMPOUND | MEASUREMENT_KIND | RESULT
Cc1cc(NN=C(c2ccc(O)cc2)c2ccc(O)cc2)c([N+](=O)[O-])cc1[N+](=O)[O-] | GI50 | 7.76 µM
CSC1=Nc2c(c(C)c(-c3ccccc3)n2COC(CO)CO)C2=NC(=O)CC(C)N12 (stereo not given) | GI50 | > 100 µM
C=C1C[C@@H]2O[C@H]3[C@H]4[C@@H](CC[C@@](C)(OC(=O)CCC)[C@H]42)[C@@H](C)C(=O)O[C@@]3(C)CC[C@H]1OO | GI50 | 17 µM
C[C@@H]1CCc2ncc(F)cc2[C@H]2CCCN2c2ccn3ncc(c3n2)C(=O)N1 | GI50 | 28.3 µM
CC[C@H]1OC(=O)[C@H](C)[C@@H](O[C@H]2C[C@@](C)(OC)[C@@H](O)[C@H](C)O2)[C@H](C)[C@@H](O[C@@H]2O[C@H](C)C[C@H](N(C)C)[C@H]2O)[C@](C)(OC)C/C(C)=C2/O[C@@]1(C)C=C2C | GI50 | 2.12 µM
COc1cc2c3c(n(CCCNCCCNCCCN)c(=O)c2cc1OC)-c1cc2c(cc1C3=O)OCO2 | GI50 | > 100 µM

Suppose we examine the compound COc1ccc(C(O)c2cc3c(N)c(C(=O)Nc4cccc(Br)c4C)sc3nc2C)cc1 (stereo not given) ; what GI50 value has been reported?
0.989 µM

Now consider Cn1cnnc1[S-].[Au+].c1ccc([PH+](c2ccccc2)c2ccccc2)cc1 and answer again.
2.75 µM

Now consider CCOC(=O)/C(=C\c1ccc2ccccc2c1)P(=O)(OCC)OCC and answer again.
2.39 µM

Now consider CCOC1Oc2ccc(C)cc2C(=O)/C1=C\Nc1ccc(S(N)(=O)=O)cc1 (stereo not given) and answer again.
22.3 µM
